Molecular target: T1, gp100 (human)
T1 construct: cell surface;cell surface complex; also called HLA-A2 / gp100 peptide complex on T2 cells
Assay: flow cytometry on peptide-pulsed T2 cells, scFv 100 nM
// reported standardized gMFI for each item listed
quantity.name: standardized gMFI

- NYA-2035 (scFv) scFv: GEVQLVESGGGVVQPGRSLTPSCSASGFSIRSYDIHWVRLAPGKGLEWVATISYDGSQKYFADSVKGRFTIFRDESENMVYLQMSGLRVEDTAVYHCARGSSGHYEAFDIWGQGTMVTVSSGGGGSGGGGSGGGGSQSVLTQPPSVSAAPGQKVTISCSGSSSNIGNWKVSWYQQLPGTAPKLLIYDNNKRPSGIPDRFSGSKSGTSATLGITGLQTGDEADYYCGTWDSSLSAPWVFGGGTKVTVLGAAAGAGGDYKDDDDKGAAAHHHHHH: 0.38
- NYA-1163 (scFv) scFv: GEVQLVESGGGVVQPGRSLTPSCSASGFSIRSYDIHWVRLAPGKGLEWVATISYDGSQKYFADSVKGRFTIFRDESENMVYLQMSGLRVEDTAVYHCARGSSGHYEAFDIWGQGTMVTVSSGGGGSGGGGSGGGGSQSVLTQPPSVSAAPGQKVTISCSGSSSNIGNNYVSWYQQLPGTAPKLLIYDNNKRPSGIPDRFSGSKSGTSATLGITGLQTGDEADYYCGTWDSSLSAPWVFGGGTKVTVLGAAAGAGGDYKDDDDKGAAAHHHHHH: 0.44
- NYA-2027 (scFv) scFv: GEVQLVESGGGVVQPGRSLTPSCSASGFSIRSYDIHWVRQAPGKGLEWVATISYDGSQKYFADSVKGRFTIFRDESENMVYLQMSGLRVEDTAVYHCARGSSGHYEAFDIWGQGTMVTVSSGGGGSGGGGSGGGGSQSVLTQPPSVSAAPGQKVTISCSGSSSNIGNNYVSWYQQLPGTAPKLLIYDNNKRPSGIPDRFSGSKSGTSATLGITGLQTGDEADYYCGSWDSSLSAPWVFGGGTKVTVLGAAAGAGGDYKDDDDKGAAAHHHHHH: 0.41
- NYA-2061 (scFv, also called NYA-2061 tag adduct) scFv: GEVQLVESGGGLVQPGGSLRLSCAASGFSIRSYDIHWVRQAPGKGLEWVATISYDGSQKYYADSVKGRFTISRDESKNTLYLQMNSLRAEDTAVYHCARGSSGHYEAFDIWGQGTLVTVSSGGGGSGGGGSGGGGSQSVLTQPPSASGTPGQRVTISCSGSSSNIGNWYVSWYQQLPGTAPKLLIYDNNKRPSGVPDRFSGSKSGTSASLAISGLQSEDEADYYCGTWDSSLSAPWVFGGGTKLTVLGAAAGAGGDYKDDDDKGAAAHHHHHH: 0.4
- NYA-2060 (scFv, also called NYA-2060 tag adduct) scFv: GEVQLVESGGGLVQPGGSLRLSCAASGFSIRSYDIHWVRQAPGKGLEWVATISYDGSQKYYADSVKGRFTISRDESKNTLYLQMNSLRAEDTAVYHCARGSSGHYEAFDIWGQGTLVTVSSGGGGSGGGGSGGGGSQSVLTQPPSVSAAPGQKVTISCSGSSSNIGNWYVSWYQQLPGTAPKLLIYDNNKRPSGIPDRFSGSKSGTSATLGITGLQTGDEADYYCGTWDSSLSAPWVFGGGTKVTVLGAAAGAGGDYKDDDDKGAAAHHHHHH: 0.41
